subjectOfTest: T1, Bbc1, P47068
T1 sequence (P47068 1-78, looked up): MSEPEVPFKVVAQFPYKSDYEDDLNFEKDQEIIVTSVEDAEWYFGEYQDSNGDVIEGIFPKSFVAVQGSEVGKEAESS
assayMethodText: SPOT array
measurementSetup: median of control spots 796
Each record gets a class by SPOT intensity: low group: < 2; middle group: ≥ 2 and < 50; high group: ≥ 50

- binder: "ALKQKKIPPPFKPHL"
  class: "low group"
- binder: "RRRDFGAPANKRPRR"
  class: "middle group"
- binder: "GAGERPRLVPRPINV"
  class: "middle group"
- binder: "KLSRGRYGLPLSSRP"
  class: "middle group"
- binder: "PSPSSSPPPIPKTAN"
  class: "low group"
- binder: "GRLRPKRIAPWHLIQ"
  class: "high group"
- binder: "NFFRKKLGIPRKLKR"
  class: "high group"
- binder: "NMLSRPRLAKLPSIR"
  class: "high group"
- binder: "FIRKRAPTPPAPSRS"
  class: "high group"
- binder: "GQYRRTIVIPRRFFT"
  class: "high group"
- binder: "VTHRLRISIPGITGR"
  class: "middle group"
- binder: "TKIRRRPQQPLTDFT"
  class: "high group"
- binder: "GRSRLFPHSPLGRSS"
  class: "middle group"
- binder: "RRGPAPPPPPRASRP"
  class: "low group"
- binder: "RRARRQMGIPTISQV"
  class: "high group"
- binder: "DKKTKPTPPPKPSHL"
  class: "low group"
- binder: "VYTRTAFQIPGDDKI"
  class: "low group"
- binder: "DRIRMFIRFPKFLLE"
  class: "middle group"
- binder: "VRVKKRPLIRPLNSS"
  class: "high group"
- binder: "VNIPSPSSSPPPIPK"
  class: "low group"
- binder: "ERPKRRAPPPVPKKP"
  class: "high group"
- binder: "AAAPKHAPPPVPNET"
  class: "low group"
- binder: "EEEEEHPPLPARRKS"
  class: "middle group"
- binder: "NNFYRPLLRSVLVLL"
  class: "middle group"
- binder: "FPGKKSPRLPHRNKK"
  class: "middle group"
- binder: "NPNRRAPRRPLSTQH"
  class: "high group"
- binder: "ATNVPVAPPPPPASL"
  class: "low group"
- binder: "KKEKKPPKIPKKVYT"
  class: "low group"
